PROCEDURE_TEXT: Cytotoxicity evaluation on HCT-116 cell line (SRB)
Type: cell-based
CONDITION_LABEL: human, HCT-116 colon cancer cells, HCT-116 cells, 72 hours treatment, read-out: Anti-HCT116 CC50
Field: CC50 at 72 h. Provide a value for each of the compounds that follow.
Remember to quote the unit after the number.

input: Please indicate CC50 at 72 h recorded for CCCCCCCCCCC(O)CC#CC(O)CC (stereo not shown)
output: 51 µM

input: Please indicate CC50 at 72 h recorded for CCCCCCCCCCC(O)CC#CC(O)C1CC1 (stereo not shown)
output: 40 µM

input: Please indicate CC50 at 72 h recorded for C=CC(O)C#CC(O)CCCCCCCCCCC (stereo not shown)
output: 2 µM

input: Please indicate CC50 at 72 h recorded for CCCCCCCCCCCCC#CC(O)C1CCCC1 (stereo not shown)
output: 100 µM
